All values here come from patent US20250170248A1.

biological target: SMARCA4 (Homo sapiens); construct: SMARCA2/SMARCA4 protein degradation selectivity in MV4-11 cells; endogenous in cells; host or cells: MV4-11; assay: SMARCA4 Western blot degradation in MV4-11 cells; format: cell-based; settings: MV4-11 cells, 24 h; read-out: SMARCA4 MSD MV411 degradation 24 h: Mean external-Abs DC50
Sequence (P51532 whole entry): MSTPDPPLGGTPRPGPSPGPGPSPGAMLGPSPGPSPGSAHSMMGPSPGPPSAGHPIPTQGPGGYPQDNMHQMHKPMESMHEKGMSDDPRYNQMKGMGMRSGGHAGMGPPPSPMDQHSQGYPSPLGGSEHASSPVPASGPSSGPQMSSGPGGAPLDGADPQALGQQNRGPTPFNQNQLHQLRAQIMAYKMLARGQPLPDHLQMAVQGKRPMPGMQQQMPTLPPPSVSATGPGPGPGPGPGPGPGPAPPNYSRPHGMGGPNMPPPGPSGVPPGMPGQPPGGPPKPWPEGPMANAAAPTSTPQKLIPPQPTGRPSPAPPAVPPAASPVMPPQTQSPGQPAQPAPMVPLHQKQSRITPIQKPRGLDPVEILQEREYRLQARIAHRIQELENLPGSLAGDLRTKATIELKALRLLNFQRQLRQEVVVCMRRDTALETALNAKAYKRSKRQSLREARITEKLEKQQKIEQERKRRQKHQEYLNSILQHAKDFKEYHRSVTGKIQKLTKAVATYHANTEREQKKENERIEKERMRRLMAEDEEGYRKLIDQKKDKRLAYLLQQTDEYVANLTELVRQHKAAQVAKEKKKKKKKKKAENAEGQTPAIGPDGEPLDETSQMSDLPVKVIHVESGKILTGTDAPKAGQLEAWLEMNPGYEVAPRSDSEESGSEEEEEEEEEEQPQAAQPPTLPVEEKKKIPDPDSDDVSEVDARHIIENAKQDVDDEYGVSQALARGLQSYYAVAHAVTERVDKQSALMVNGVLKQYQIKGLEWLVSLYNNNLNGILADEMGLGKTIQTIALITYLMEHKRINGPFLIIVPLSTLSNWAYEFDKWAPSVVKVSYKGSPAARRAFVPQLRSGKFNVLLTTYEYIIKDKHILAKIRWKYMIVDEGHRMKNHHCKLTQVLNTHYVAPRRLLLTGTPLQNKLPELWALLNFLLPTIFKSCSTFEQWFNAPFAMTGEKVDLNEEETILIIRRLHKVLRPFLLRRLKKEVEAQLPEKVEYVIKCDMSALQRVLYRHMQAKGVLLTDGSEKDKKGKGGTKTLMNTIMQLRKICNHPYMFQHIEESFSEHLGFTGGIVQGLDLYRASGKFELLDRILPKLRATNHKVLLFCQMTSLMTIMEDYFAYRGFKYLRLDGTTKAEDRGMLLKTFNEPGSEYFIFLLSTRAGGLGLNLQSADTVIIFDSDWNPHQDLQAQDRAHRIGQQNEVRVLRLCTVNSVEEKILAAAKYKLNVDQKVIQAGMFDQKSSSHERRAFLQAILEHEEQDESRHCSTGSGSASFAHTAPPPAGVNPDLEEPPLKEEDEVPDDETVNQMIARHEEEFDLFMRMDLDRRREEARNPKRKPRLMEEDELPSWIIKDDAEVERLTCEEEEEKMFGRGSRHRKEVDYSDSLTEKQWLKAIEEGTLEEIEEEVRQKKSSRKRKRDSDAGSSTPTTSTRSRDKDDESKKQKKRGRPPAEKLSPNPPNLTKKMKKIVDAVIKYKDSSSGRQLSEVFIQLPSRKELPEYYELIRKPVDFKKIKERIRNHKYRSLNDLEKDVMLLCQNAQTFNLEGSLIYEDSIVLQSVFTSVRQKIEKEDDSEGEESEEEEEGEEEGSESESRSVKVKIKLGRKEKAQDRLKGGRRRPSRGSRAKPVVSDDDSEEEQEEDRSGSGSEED
Quantity kind: DC50

Guide cases for DC50, answers given:
- Compound: "C#Cc1ccc(CNC(=O)[C@@H]2C[C@@H](O)CN2C(=O)[C@@H](NC(=O)N2CC3(CC(N4CCC(N5CCC(N6CCc7[nH]c8nnc(-c9ccccc9O)cc8c7[C@H]6C)CC5)CC4)C3)C2)C(C)(C)C)c(F)c1"
  Quantity kind: "DC50"
  Val: "> 100 nM"
- Compound: "C#Cc1ccc([C@H](C)NC(=O)[C@@H]2C[C@@H](O)CN2C(=O)[C@@H](NC(=O)N2CC3(CC(N4CCC(c5cnc(N6CCc7[nH]c8nnc(-c9ccccc9O)cc8c7[C@H]6C)cn5)CC4)C3)C2)C(C)(C)C)cc1"
  Quantity kind: "DC50"
  Val: "> 100 nM"
- Compound: "Cc1ncsc1-c1ccc(CNC(=O)[C@@H]2C[C@@H](O)CN2C(=O)[C@@H](NC(=O)N2CC3(CCC(N4CCC(c5cnc(N6CCc7[nH]c8nnc(-c9ccccc9O)cc8c7C6C)nc5)CC4)CC3)C2)C(C)(C)C)cc1 (stereo partly drawn)"
  Quantity kind: "DC50"
  Val: "> 100 nM"
- Compound: "C#Cc1ccc(CNC(=O)[C@@H]2C[C@@H](O)CN2C(=O)[C@@H](NC(=O)[C@H]2CCC3(CC2)C[C@H](N2CCC(c4cnc(N5CCN6c7cc(-c8ccccc8O)nnc7NC[C@H]6C5)nc4)CC2)C3)C(C)(C)C)c(OCCCOC)c1 (single isomer, unassigned) [I-149]"
  Quantity kind: "DC50"
  Val: "10 to 100 nM"
- Compound: "C#Cc1ccc(CNC(=O)[C@@H]2C[C@@H](O)CN2C(=O)[C@@H](NC(=O)N2CC3(CC(N4C[C@H]5CN(c6cnc(N7CCc8[nH]c9nnc(-c%10ccccc%10O)cc9c8[C@@H]7C)nc6)C[C@H]5C4)C3)C2)C(C)(C)C)cc1"
  Quantity kind: "DC50"
  Val: "> 100 nM"

Ask: Determine from records and report DC50 for C#Cc1ccc([C@H](C)NC(=O)[C@@H]2C[C@@H](O)CN2C(=O)[C@@H](NC(=O)N2CC3(CC(N4CCC(N5CCC(N6CCc7[nH]c8nnc(-c9ccccc9O)cc8c7[C@H]6C)CC5)CC4)C3)C2)C(C)(C)C)cc1
Result: > 100 nM

Ask: Supply recorded DC50 for Cc1ncsc1-c1ccc(CNC(=O)[C@@H]2C[C@@H](O)CN2C(=O)[C@@H](NC(=O)N2CC3(CC(N4CCN(c5cnc(N6CCc7[nH]c8nnc(-c9ccccc9O)cc8c7[C@H]6C)nc5)CC4)C3)C2)C(C)(C)C)cc1 here.
Result: 10 to 100 nM

Ask: Output measured DC50 for this item: C#Cc1ccc(CNC(=O)[C@@H]2C[C@@H](O)CN2C(=O)[C@@H](NC(=O)CCCN2CCC(N3CC4(CC(N5CCN6c7cc(-c8ccccc8O)nnc7NC[C@H]6C5)C4)C3)CC2)C(C)(C)C)cc1 (single isomer, unassigned)
Result: > 100 nM

Ask: Identify the reported DC50 for the following entry. C#Cc1ccc(CNC(=O)[C@@H]2C[C@@H](O)CN2C(=O)[C@@H](NC(=O)N2CC3(CC(N4CCC(N5CCC(N6CCc7[nH]c8nnc(-c9ccccc9O)cc8c7[C@H]6C)CC5)CC4)C3)C2)C(C)(C)C)c(OC)c1
Result: > 100 nM
